Molecular target: T1, CD5 antigen (Octet affinity determination, Example 8) (UniProt P06127 25-372, limits assumed)
T1 sequence (looked up): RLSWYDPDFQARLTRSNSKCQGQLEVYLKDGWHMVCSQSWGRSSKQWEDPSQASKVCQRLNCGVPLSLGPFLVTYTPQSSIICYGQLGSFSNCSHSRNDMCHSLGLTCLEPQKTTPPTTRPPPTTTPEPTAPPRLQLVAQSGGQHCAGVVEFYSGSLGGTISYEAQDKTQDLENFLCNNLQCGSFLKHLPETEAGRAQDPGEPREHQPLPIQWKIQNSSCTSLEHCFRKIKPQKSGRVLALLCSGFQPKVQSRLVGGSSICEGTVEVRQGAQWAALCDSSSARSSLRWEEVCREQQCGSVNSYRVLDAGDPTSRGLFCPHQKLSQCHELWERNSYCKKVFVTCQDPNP
Test: BLI (Octet), IgG loaded on the biosensor, CD5 antigen 400 to 12.5 nM, 1:1 model
Below, each entry is listed with its recorded koff.
Respond numerically; units are s⁻¹ and should not be typed.

BINDER: H65 anti-CD5 IgG (antibody, V domains shown) VH: QIQLVQSGPELKKPGETVKISCKASGYTFTNYGMNWVKQAPGKGLRWMGWINTHTGEPTYADDFKGRFAFSLETSASTAYLQINNLKNEDTATYFCTRRGYDWYFDVWGAGTTVTVSS VL: DIKMTQSPSSMYASLGERVTITCKASQDINSYLSWFHHKPGKSPKTLIYRANRLVDGVPSRFSGSGSGQDYSLTISSLDYEDMGIYYCQQYDESPWTFGGGTKLEIK
UNITS: s⁻¹
koff: 0.000813

BINDER: Clone 35 anti-CD5 IgG (antibody, V domains shown, The VH entry as printed begins with MA carried over from the scFv) VH: QVQLVESGGGLVQPGGSLRLSCAASGFTFSSYAMSWVRQTPGKGLEWVSTITDSGDITYYTASVQGRFTISRDNSKNTLYLQMNSLRAEDTAVYYCARMSSHWYFSADYWGQGTLVTVSS VL: QSVLTQPPSVSAAPGQKVTISCSGSSSNIGNNYVSWYQQLPGTAPKLLIYDNNKRPSGIPDRFSGSKSGTSATLGITGLQTGDEADYYCGTWDSSLSAVVFGGGTKLTVLG
UNITS: s⁻¹
koff: 0.000382

// koff lookup, key: Clone 32 anti-CD5 IgG (antibody, V domains shown) VH: QVQLVESGGGLVKPGGSLRLSCAASGFTFSSYSMNWVRQAPGKGLEWVSSISSSSSYIYYADSVKGRFTISRDNAKNSLYLQMNSLRAEDTAVYYCARGNPWYGVDYWGQGTLVTVSS VL: QSVLTQPPSVSAAPGQKVTISCSGSNSNIGNNYVSWYQQLPGTAPKRLIYDNNKRPSGIPDRFSGSKSGTSATLGITGLQTGDEADYYCGIWDSSLDAYVFGTGTKVTVLG 0.00217

May I ask what koff has been recorded for Clone 10 anti-CD5 IgG (antibody, V domains shown) VH: EVQLLESGGGLVKPGGSLRLSCAASGFTFNNYTMNWVRQAPGKGLEWVSSISSSSSYIYYADSVKGRFTISRDNAKNSLFLQMNSLRGEDTAVYYCARYFSGSAGDYWGQGTLVTVSS VL: QSVVTQPPSVSGAPGQRVTISCTGSSSNIGAGYDVHWYQQLPGTAPKLLIYGNINRPSGVPDRFSGSKSGTSASLAITGLQAEDEADYYCGTWDNSLSAHYVFGTGTKVTVLG ? 0.00143

Data provenance: patent US20240002505A1
